Attribution: PubChem BioAssay AID1259407

Test system: CCRIS mutagenicity, Ames/micronucleus/aberration tests
MEASUREMENT PROTOCOL: CCRIS mutagenicity studies
ASSAY SETUP: Test System: AMES SALMONELLA TYPHIMURIUM; Strain/Indicator: TA102; Metabolic Activation: RAT, LIVER, S-9, AROCLOR 1254; Method: SPOT TEST
Activity calls are given as the source filed them. No rule for the calls is given here.
EXPERIMENTAL ENDPOINT: mutagenic call

CC(C)=CCOc1c2occc2cc2ccc(=O)oc12 : inactive; negative
CC1(C)O[C@H]1COc1c2ccoc2cc2oc(=O)ccc12 : inactive; negative
CC(C)(O)[C@H]1Cc2cc3ccc(=O)oc3cc2O1 : inactive; negative
C=CC(C)(C)c1cc2cc3c(cc2oc1=O)OC(C(C)(C)O)C3 (centres undefined) : inactive; negative

* * *

System: CCRIS mutagenicity, Ames/micronucleus/aberration tests
MEASUREMENT PROTOCOL: CCRIS mutagenicity studies
ASSAY SETUP: Test System: Mouse lymphoma; Strain/Indicator: L5178Y (tk+/tk-); Metabolic Activation: None; Method: Suspension/plate
Calls of active or inactive are those of the source. The rule behind the calls is not given here.
Assign a class; possible classes are 1.0 (active), 0.0 (inactive)

Worked examples, 10 compounds total:
Nc1ccccc1C(=O)O : 0.0
CC1(C)CC(O)CC(C)(C)N1[O] : 1.0
O=S(=O)(O)c1cc(S(=O)(=O)O)c2c(N=Nc3ccc(S(=O)(=O)O)c4ccccc34)c(O)ccc2c1 : 0.0
COCCCN : 0.0
CSC[C@H](NC(=O)COc1cccc2cnccc12)C(=O)N[C@@H](Cc1ccccc1)[C@H](O)C(=O)N1CSC[C@H]1C(=O)NC(C)(C)C : 0.0
C1CCC2=NCCCN2CC1 : 0.0
O=C/C=C/C=C\c1ccc([N+](=O)[O-])cc1 : 1.0
Nc1ccn([C@@H]2C=C(CO)[C@@H](O)[C@H]2O)c(=O)n1 : 1.0
CN(C)c1ccc(N=Nc2ccc3ccccc3c2)cc1 : 0.0
Nc1ccccc1C(=O)OC/C=C/c1ccccc1 : 0.0

Lookup: Dear colleague, could you share the recorded outcome for CN1C[C@H](C(=O)N[C@]2(C)O[C@@]3(O)[C@@H]4CCCN4C(=O)[C@H](Cc4ccccc4)N3C2=O)C=C2c3cccc4[nH]cc(c34)C[C@H]21 when you have a moment?
Found: 0.0

Lookup: Dear colleague, could you share the recorded outcome for CN1CC[C@H](c2c(O)cc(O)c3c(=O)cc(-c4ccccc4Cl)oc23)[C@H](O)C1 when you have a moment?
Found: 0.0

Lookup: Dear colleague, could you share the recorded outcome for CCCc1cc(=O)oc2c3c(c4c(c12)OC(C)(C)CC4)O[C@@H](C)[C@H](C)[C@@H]3O when you have a moment?
Found: 0.0

* * *

Test system: CCRIS mutagenicity, Ames/micronucleus/aberration tests
MEASUREMENT PROTOCOL: CCRIS mutagenicity studies
ASSAY SETUP: Test System: AMES SALMONELLA TYPHIMURIUM; Strain/Indicator: TA1535; Metabolic Activation: RAT, LIVER, S-9, AROCLOR 1254; Method: STANDARD PLATE
The source made the active and inactive calls. How the calls were made is not given here.
Assign a class; possible classes are active, inactive

COc1cc(CNC(=O)CCCCCCC(C)C)ccc1O : inactive
C=CCc1ccc2c(c1)OCO2 : inactive
C=CCc1ccc(O)c(O)c1 : inactive
O=C/C=C/C=C\c1ccc([N+](=O)[O-])cc1 : active

# next compound below
Lookup: Dear colleague, could you share the recorded outcome for O=[N+]([O-])c1ccccc1C(F)(F)F when you have a moment?
Found: inactive

* * *

Tested on: CCRIS mutagenicity, Ames/micronucleus/aberration tests
MEASUREMENT PROTOCOL: CCRIS mutagenicity studies
ASSAY SETUP: End Point: IN VITRO CHROMOSOMAL ABERRATIONS; Test System: CHO CELLS; Metabolic Activation: RAT, LIVER, S-9, AROCLOR 1254
Calls of active or inactive are those of the source. The rule behind the calls is not given here.
Assign a class; possible classes are 1 for active, 0 for inactive

Worked examples, 3 molecules total:
C=C(C)[C@H]1CC=C(C)CC1 : 0
Nc1ccc(N)c2c1C(=O)c1c(N)ccc(N)c1C2=O : 1
NS(=O)(=O)c1cc2c(cc1Cl)NCNS2(=O)=O : 0

Lookup: Dear colleague, could you share the recorded outcome for CCCOC(=O)c1cc(O)c(O)c(O)c1 when you have a moment?
Found: 0

Lookup: Dear colleague, could you share the recorded outcome for Nc1ccccc1C(=O)OC/C=C/c1ccccc1 when you have a moment?
Found: 0

* * *

Tested on: CCRIS mutagenicity, Ames/micronucleus/aberration tests
MEASUREMENT PROTOCOL: CCRIS mutagenicity studies
ASSAY SETUP: Test System: AMES SALMONELLA TYPHIMURIUM; Strain/Indicator: TA98(NR); Metabolic Activation: NONE; Method: PREINCUBATION
The source made the active and inactive calls. No rule for the calls is given here.
Assign a class; possible classes are active, inactive

Lookup: Dear colleague, could you share the recorded outcome for O=[N+]([O-])c1ccc(Br)c([N+](=O)[O-])c1 when you have a moment?
Found: active

Lookup: Dear colleague, could you share the recorded outcome for Nc1nc(-c2ccc([N+](=O)[O-])cc2)nc2c1ncn2-c1ccc([N+](=O)[O-])cc1 when you have a moment?
Found: active

* * *

Tested on: CCRIS mutagenicity, Ames/micronucleus/aberration tests
MEASUREMENT PROTOCOL: CCRIS mutagenicity studies
ASSAY SETUP: Test System: AMES SALMONELLA TYPHIMURIUM; Strain/Indicator: TA1535; Metabolic Activation: NONE; Method: PREINCUBATION
Calls of active or inactive are those of the source. How the calls were made is not given here.
Assign a class; possible classes are active, inactive

Lookup: Dear colleague, could you share the recorded outcome for Cc1cccc(N)c1 when you have a moment?
Found: inactive

Lookup: Dear colleague, could you share the recorded outcome for C[C@]12CC[C@@H]3c4ccc(O)cc4CC[C@H]3[C@@]13CC[C@]2(O)[C@H](O)C3 when you have a moment?
Found: inactive

Lookup: Dear colleague, could you share the recorded outcome for C[C@]12C/C(=C/O)C(=O)C[C@@H]1CC[C@@H]1[C@@H]2CC[C@@]2(C)[C@H]1CC[C@]2(C)O when you have a moment?
Found: inactive

Lookup: Dear colleague, could you share the recorded outcome for C[C@H](CCC(=O)O)[C@H]1CC[C@H]2[C@@H]3CC[C@@H]4C[C@H](O)CC[C@]4(C)[C@H]3CC[C@]12C when you have a moment?
Found: inactive

Lookup: Dear colleague, could you share the recorded outcome for CC(C)C(C)(C)C(C)(C)C(C)(C)S when you have a moment?
Found: inactive

Lookup: Dear colleague, could you share the recorded outcome for CC(=O)CN(COC(C)=O)N=O when you have a moment?
Found: active

Lookup: Dear colleague, could you share the recorded outcome for CC(I)C1OCC(CO)O1 (stereo not given) when you have a moment?
Found: active

Lookup: Dear colleague, could you share the recorded outcome for C=CC[Si](C)(C)C when you have a moment?
Found: inactive

Lookup: Dear colleague, could you share the recorded outcome for COC(=O)[C@H]1[C@H]2C[C@@H]3c4[nH]c5cc(OC)ccc5c4CCN3C[C@H]2C[C@@H](OC(=O)c2cc(OC)c(OC)c(OC)c2)[C@@H]1OC when you have a moment?
Found: inactive

Lookup: Dear colleague, could you share the recorded outcome for CN(C)c1ccc([C@H]2C[C@]3(C)[C@@H](CC[C@]3(O)CCCO)[C@@H]3CCC4=CC(=O)CCC4=C32)cc1 when you have a moment?
Found: inactive

* * *

Test system: CCRIS mutagenicity, Ames/micronucleus/aberration tests
MEASUREMENT PROTOCOL: CCRIS mutagenicity studies
ASSAY SETUP: Test System: AMES SALMONELLA TYPHIMURIUM; Strain/Indicator: TA97; Metabolic Activation: HAMSTER, LIVER, S-9, AROCLOR 1254 (10%); Method: PREINCUBATION
Calls of active or inactive are those of the source. No rule for the calls is given here.
Assign a class; possible classes are y (active), n (inactive)

OCCCCl : n
Cc1c(N=C=O)cccc1N=C=O : n
Nc1ccc(Br)cc1 : n
Cc1cc(-c2cc(C)c(N)c(C)c2)cc(C)c1N : n
Nc1ccc2ccccc2c1N=Nc1ccc([N+](=O)[O-])cc1 : y
O=P(OC(CCl)CCl)(OC(CCl)CCl)OC(CCl)CCl : y

# next molecule below
Lookup: Dear colleague, could you share the recorded outcome for Clc1cccc(C(Cl)(Cl)Cl)n1 when you have a moment?
Found: n

* * *

System: CCRIS mutagenicity, Ames/micronucleus/aberration tests
MEASUREMENT PROTOCOL: CCRIS mutagenicity studies
ASSAY SETUP: Test System: AMES SALMONELLA TYPHIMURIUM; Strain/Indicator: TA100; Metabolic Activation: NONE; Method: PREINCUBATION
Calls of active or inactive are those of the source. The rule behind the calls is not given here.
Assign a class; possible classes are yes (active), no (inactive)

Worked examples, 5 compounds total:
CCOP(=S)(OCC)Oc1ccc([N+](=O)[O-])cc1 : yes
O=S(=O)(O)c1ccc(N=Nc2c(O)ccc3ccccc23)cc1 : no
Cc1cccc(O)c1C : no
Nc1ccc(N)c2c1C(=O)c1c(N)ccc(N)c1C2=O : no
FCC1CO1 (stereo not drawn) : yes

Lookup: Dear colleague, could you share the recorded outcome for Nc1cccc(N)c1C(=O)O when you have a moment?
Found: no

Lookup: Dear colleague, could you share the recorded outcome for CC(N)Cc1ccccc1 (stereo not drawn) when you have a moment?
Found: no

Lookup: Dear colleague, could you share the recorded outcome for O=C/C=C/c1ccccc1[N+](=O)[O-] when you have a moment?
Found: yes

Lookup: Dear colleague, could you share the recorded outcome for O.O.O.O=C([O-])COc1ccccc1.O=C([O-])COc1ccccc1.[Cu+2] when you have a moment?
Found: no

Lookup: Dear colleague, could you share the recorded outcome for COC(=O)C1=C(C)NC(C)=C(C(=O)OCC(C)=O)C1c1ccccc1[N+](=O)[O-] (stereo not drawn) when you have a moment?
Found: no

Lookup: Dear colleague, could you share the recorded outcome for Clc1cc2c(cc1Cl)Oc1cc(Cl)c(Cl)cc1O2 when you have a moment?
Found: no

Lookup: Dear colleague, could you share the recorded outcome for CN(C)CCN(Cc1ccccc1)c1ccccc1 when you have a moment?
Found: no

Lookup: Dear colleague, could you share the recorded outcome for Nc1cc([N+](=O)[O-])ccc1CO when you have a moment?
Found: yes
